Biological target: Human liver cathepsin D (Homo sapiens)
Construct: purchased Athens Research and Technology, Athens, Ga; host or cells: human liver
Sequence (P07339 169-412 limits assumed): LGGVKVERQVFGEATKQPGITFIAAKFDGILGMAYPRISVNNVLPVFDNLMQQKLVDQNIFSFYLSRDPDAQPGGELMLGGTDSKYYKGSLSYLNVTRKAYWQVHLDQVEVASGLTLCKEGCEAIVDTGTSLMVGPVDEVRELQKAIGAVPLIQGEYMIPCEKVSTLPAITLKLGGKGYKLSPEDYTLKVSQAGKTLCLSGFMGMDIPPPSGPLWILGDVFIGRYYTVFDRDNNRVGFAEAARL
Sequence (P07339 65-161 limits assumed): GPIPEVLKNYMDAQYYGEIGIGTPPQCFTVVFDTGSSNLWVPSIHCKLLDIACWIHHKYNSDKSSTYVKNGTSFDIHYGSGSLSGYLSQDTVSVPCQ
Assay: Cathepsin D inhibition, fluorometric assay (Tables 5 and 6)
Format: biochemical
Details: Compound Stock Concentration 4.15 μg/ml
measuredMetric: inhibition at 4.15 µg/mL (stock) (%)

{"smi": "CCCCOc1ccc(C=C2SC(=S)N(N(C)C)C2=O)cc1OCCCC", "inhibition at 4.15 µg/mL (stock), %": 48}
{"smi": "CCCCCOc1c(OC)cc(C=C2SC(=S)NC2=O)cc1OC", "inhibition at 4.15 µg/mL (stock), %": 66}

[I] CCCOc1cc(C=C2SC(=S)NC2=O)ccc1OCC
[II] CCOc1cc(C=C2SC(=S)N(C)C2=O)cc(CSc2ccccc2)c1O
Which value of inhibition at 4.15 µg/mL (stock) is numerically greater: that of I or that of II ? Lab log: write the label of the selected item as the result.
II
(II: 69%, I: 40%)

[P] CC(=C1SC(=S)NC1=O)c1cccc(Oc2ccccc2)c1
[Q] CCOc1cc(C=C2SC(=S)N(C)C2=O)ccc1O
Of P versus Q , which is the one with smaller reported inhibition at 4.15 µg/mL (stock)? Lab log: write the label of the selected item as the result.
P

[1] CCCCCCCCOc1ccc(C=C2SC(=S)NC2=O)cc1OC
[2] CCCCOc1ccc(C=C2SC(=S)NC2=O)cc1OCC
Which value of inhibition at 4.15 µg/mL (stock) is numerically greater: that of 1 or that of 2 ? Lab log: write the label of the selected item as the result.
2
(2: 73%, 1: 51%)

Data origin: patent US5523314A
